Entry source: patent US20140017242A1

test system: MV-4-11; assay: MTT Cell Proliferation Assay, MV-4-11; format: cell-based, human; conditions: 120 hours of exposure, read-out: EC 50 MV-4-11, value in brackets
PROPERTY_MEASURED: pEC50
Give bare numbers, as −log10 of the molar value.

Problem: Can you look up pEC50 on MV-4-11 for N.N.[Cl][Pt][Cl] [Cisplatin, cisplatin] ?
Solution: 5.92
